- testDescription: Bioavailability study, plasma concentration by HPLC-UV
- Format: in vivo, Swiss albino mice
- conditionSummary: Swiss albino, mouse, plasma, po, 20 mg/kg
testReadout: Tmax (min)
Note: unit min is implicit; provide only the numeric part.

# compound COc1cc(/C=C/C(=O)CC(=O)/C=C/c2ccc(O)c(OC)c2)ccc1O [curcumin, reference compound] ; its Tmax = 15

---

- Test system: human breast cancer cell lines (MDA-MB-231, MDA-MB-468, MCF7)
- testDescription: MTT assay of human breast cancer cell lines
- Type: cell-based
- conditionSummary: 48 h, read-out: IC50 (cytotoxicity)
pIC50: −log10 of the molar value.
testReadout: pIC50

Field pIC50 (human breast cancer cell lines (MDA-MB-231, MDA-MB-468, MCF7)), entry O=C1/C(=C/c2ccccc2Cl)CN(C(=O)C(=O)N2C/C(=C\c3ccccc3Cl)C(=O)/C(=C/c3ccccc3Cl)C2)C/C1=C\c1ccccc1Cl : 6.52 to 6.78
